Source of measurements: ChEMBL document CHEMBL1240299

- Tested on: BL-41
- Test Description: Induction of apoptosis in CD40-positive human BL41 cells assessed as level of CD40 expression by mean fluorescence intensity
- Type: functional, cell-based
Activity calls are given as the source filed them. The rule behind the calls is not given here. Non-standard residues stand in square brackets, D forms with d. Residues, ends and D or L forms follow the SMILES beside them. Ahx = NCCCCCC(=O)O
Labels: active, inactive

{"Molecule": "NCCCC[C@H](N)C(=O)NCC(=O)N[C@@H](Cc1ccc(O)cc1)C(=O)N[C@@H](Cc1ccc(O)cc1)C(=O)NCCCCCC(=O)NCCCOCC(COCCCNC(=O)CCCCCNC(=O)[C@H](Cc1ccc(O)cc1)NC(=O)[C@H](Cc1ccc(O)cc1)NC(=O)CNC(=O)[C@@H](N)CCCCN)(COCCCNC(=O)CCCCCNC(=O)[C@H](Cc1ccc(O)cc1)NC(=O)[C@H](Cc1ccc(O)cc1)NC(=O)CNC(=O)[C@@H](N)CCCCN)NC(=O)CCC(N)=O", "Assigned Category": "inactive"}
{"Molecule": "C[C@H]1NC(=O)[C@H](CCCCN)NC(=O)[C@@H](C)NC(=O)[C@H](CCCCN)NC(=O)[C@@H](C)NC(=O)[C@H](CCCCN)NC1=O", "Assigned Category": "inactive"}
{"Molecule": "C[C@@H](NC(=O)[C@H](CCCCNC(=O)CCCCCNC(=O)[C@H](Cc1ccc(O)cc1)NC(=O)[C@H](Cc1ccc(O)cc1)NC(=O)CNC(=O)[C@@H](N)CCCCN)NC(=O)[C@@H](C)NC(=O)[C@H](CCCCNC(=O)CCCCCNC(=O)[C@H](Cc1ccc(O)cc1)NC(=O)[C@H](Cc1ccc(O)cc1)NC(=O)CNC(=O)[C@@H](N)CCCCN)NC(=O)[C@@H](C)NC(=O)[C@@H](N)CCCCNC(=O)CCCCCNC(=O)[C@H](Cc1ccc(O)cc1)NC(=O)[C@H](Cc1ccc(O)cc1)NC(=O)CNC(=O)[C@@H](N)CCCCN)C(=O)O", "Assigned Category": "inactive"}
{"Molecule": "NCCCC[C@H](N)C(=O)NCC(=O)N[C@@H](Cc1ccc(O)cc1)C(=O)N[C@@H](Cc1ccc(O)cc1)C(=O)NCCCCCC(=O)NCCCC[C@@H]1CNC(=O)C[C@H](CCCCNC(=O)CCCCCNC(=O)[C@H](Cc2ccc(O)cc2)NC(=O)[C@H](Cc2ccc(O)cc2)NC(=O)CNC(=O)[C@@H](N)CCCCN)NC[C@H](CCCCNC(=O)CCCCCNC(=O)[C@H](Cc2ccc(O)cc2)NC(=O)[C@H](Cc2ccc(O)cc2)NC(=O)CNC(=O)[C@@H](N)CCCCN)NC(=O)C1", "Assigned Category": "active"}
{"Molecule": "NCCCC[C@H](N)C(=O)NCC(=O)N[C@@H](Cc1ccc(O)cc1)C(=O)N[C@@H](Cc1ccc(O)cc1)C(=O)NCCCCCC(=O)O (H-KGYY[Ahx]-OH)", "Assigned Category": "inactive"}
